Molecular target: T1, CRBN, Q96SW2;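 note: pooled lentiviral library of zinc finger degron-EGFP fusions in mCherry-positive Jurkat cells, FACS-sorted after compound exposure, with degron abundance counted by next-generation sequencing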
T1 chain: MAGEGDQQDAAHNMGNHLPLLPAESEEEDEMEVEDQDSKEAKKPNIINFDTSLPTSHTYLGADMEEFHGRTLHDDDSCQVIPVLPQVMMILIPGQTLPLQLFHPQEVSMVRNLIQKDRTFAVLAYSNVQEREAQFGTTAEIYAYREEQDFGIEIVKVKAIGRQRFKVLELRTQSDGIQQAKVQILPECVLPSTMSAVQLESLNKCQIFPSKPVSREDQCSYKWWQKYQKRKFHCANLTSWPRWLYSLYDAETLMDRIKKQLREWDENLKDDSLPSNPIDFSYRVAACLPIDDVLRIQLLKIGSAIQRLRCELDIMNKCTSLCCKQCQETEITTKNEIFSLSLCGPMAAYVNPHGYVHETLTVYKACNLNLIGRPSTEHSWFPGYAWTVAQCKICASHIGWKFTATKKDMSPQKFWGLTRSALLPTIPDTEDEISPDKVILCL
Assay: log2 fold change of degron read counts, EGFP-low vs EGFP+ sorted cells (limma voom), compound-induced degradation; higher = more compound-induced degradation of the degron-EGFP fusion; degrons are variants of IKZF1/3 zinc finger 2; compound dose not given here
Details: Jurkat; 18 h; compound: compound 22 (5-morpholino-thalidomide)
Whole data set: some 8,300 sequences, median “log2 fold change of degron read counts, EGFP-low vs EGFP+ sorted cells (limma voom), compound-induced degradation” near -1.1, cut for the highest 2% near 3.2. Shown is part of a subset that was picked to be rich in the highest values.
// thresholds for log2 fold change of degron read counts classes: bin 0 (below -0.9), bin 1 (-0.9 to below 2), bin 2 (2 or more)

chainSequence: FDCEICGAKFTQKGNLLRHIKL [46F_47D_49E_50I_52G_53A_54K_55F_67L_, Q9UKT9]
answerLabel: bin 1

chainSequence: FECEICGAHFTQKGNLLRHIKL [46F_47E_49E_50I_52G_53A_54H_55F_67L_, Q9UKT9]
answerLabel: bin 0

chainSequence: FHCPICGHPFTQKGNLLRHIKL [46F_47H_49P_50I_52G_53H_54P_55F_67L_, Q9UKT9]
answerLabel: bin 1

chainSequence: FCCEICGAKFTQKGNLLRHIKL [46F_47C_49E_50I_52G_53A_54K_55F_67L_, Q9UKT9]
answerLabel: bin 2

chainSequence: FNCEQCGAQFTQKGNLLRHIKL [46F_47N_49E_50Q_52G_53A_54Q_55F_67L_, Q9UKT9]
answerLabel: bin 0

chainSequence: FNCEICGAHFTQKGNLLRHIKL [46F_47N_49E_50I_52G_53A_54H_55F_67L_, Q9UKT9]
answerLabel: bin 1

chainSequence: FYCEICGAHFTQKGNLLRHIKL [46F_47Y_49E_50I_52G_53A_54H_55F_67L_, Q9UKT9]
answerLabel: bin 2

chainSequence: FKCEICGAKFTQKGNLLRHIKL [46F_47K_49E_50I_52G_53A_54K_55F_67L_, Q9UKT9]
answerLabel: bin 0

chainSequence: FICEICGAHFTQKGNLLRHIKL [46F_47I_49E_50I_52G_53A_54H_55F_67L_, Q9UKT9]
answerLabel: bin 1

chainSequence: FFCEICGAHFTQKGNLLRHIKL [46F_47F_49E_50I_52G_53A_54H_55F_67L_, Q9UKT9]
answerLabel: bin 2

# input for lookup
Query: State the class of the sequence shown: FTCEICGAHFTQKGNLLRHIKL [46F_47T_49E_50I_52G_53A_54H_55F_67L_, Q9UKT9]
Result: bin 1

Source: the supplement of paper PMC12645437
